B1: full-length phytochrome B (phyB), wild type, in vitro translated [modified: 35S-methionine labelled; 35S-methionine labelled] [Arabidopsis thaliana] / GAD-PIF3, in vitro translated [modified: 35S-methionine labelled … (parent)
chain 1: MVSGVGGSGGGRGGGRGGEEEPSSSHTPNNRRGGEQAQSSGTKSLRPRSNTESMSKAIQQYTVDARLHAVFEQSGESGKSFDYSQSLKTTTYGSSVPEQQITAYLSRIQRGGYIQPFGCMIAVDESSFRIIGYSENAREMLGIMPQSVPTLEKPEILAMGTDVRSLFTSSSSILLERAFVAREITLLNPVWIHSKNTGKPFYAILHRIDVGVVIDLEPARTEDPALSIAGAVQSQKLAVRAISQLQALPGGDIKLLCDTVVESVRDLTGYDRVMVYKFHEDEHGEVVAESKRDDLEPYIGLHYPATDIPQASRFLFKQNRVRMIVDCNATPVLVVQDDRLTQSMCLVGSTLRAPHGCHSQYMANMGSIASLAMAVIINGNEDDGSNVASGRSSMRLWGLVVCHHTSSRCIPFPLRYACEFLMQAFGLQLNMELQLALQMSEKRVLRTQTLLCDMLLRDSPAGIVTQSPSIMDLVKCDGAAFLYHGKYYPLGVAPSEVQIKDVVEWLLANHADSTGLSTDSLGDAGYPGAAALGDAVCGMAVAYITKRDFLFWFRSHTAKEIKWGGAKHHPEDKDDGQRMHPRSSFQAFLEVVKSRSQPWETAEMDAIHSLQLILRDSFKESEAAMNSKVVDGVVQPCRDMAGEQGIDELGAVAREMVRLIETATVPIFAVDAGGCINGWNAKIAELTGLSVEEAMGKSLVSDLIYKENEATVNKLLSRALRGDEEKNVEVKLKTFSPELQGKAVFVVVNACSSKDYLNNIVGVCFVGQDVTSQKIVMDKFINIQGDYKAIVHSPNPLIPPIFAADENTCCLEWNMAMEKLTGWSRSEVIGKMIVGEVFGSCCMLKGPDALTKFMIVLHNAIGGQDTDKFPFPFFDRNGKFVQALLTANKRVSLEGKVIGAFCFLQIPSPELQQALAVQRRQDTECFTKAKELAYICQVIKNPLSGMRFANSLLEATDLNEDQKQLLETSVSCEKQISRIVGDMDLESIEDGSFVLKREEFFLGSVINAIVSQAMFLLRDRGLQLIRDIPEEIKSIEVFGDQIRIQQLLAEFLLSIIRYAPSQEWVEIHLSQLSKQMADGFAAIRTEFRMACPGEGLPPELVRDMFHSSRWTSPEGLGLSVCRKILKLMNGEVQYIRESERSYFLIILELPVPRKRPLSTASGSGDMMLMMPY
chain 2: MPLFELFRLTKAKLESAQDRNPSPPVDEVVELVWENGQISTQSQSSRSRNIPPPQANSSRAREIGNGSKTTMVDEIPMSVPSLMTGLSQDDDFVPWLNHHPSLDGYCSDFLRDVSSPVTVNEQESDMAVNQTAFPLFQRRKDGNESAPAASSSQYNGFQSHSLYGSDRARDLPSQQTNPDRFTQTQEPLITSNKPSLVNFSHFLRPATFAKTTNNNLHDTKEKSPQSPPNVFQTRVLGAKDSEDKVLNESVASATPKDNQKACLISEDSCRKDQESEKAVVCSSVGSGNSLDGPSESPSLSLKRKHSNIQDIDCHSEDVEEESGDGRKEAGPSRTGLGSKRSRSAEVHNLSERRRRDRINEKMRALQELIPNCNKVDKASMLDEAIEYLKSLQLQVQIMSMASGYYLPPAVMFPPGMGHYPAAAAAMAMGMGMPYAMGLPDLSRGGSSVNHGPQFQVSGMQQQPVAMGIPRVSGGGIFAGSSTIGNGSTRDLSGSKDQTTTNNNSNLKPIKRKQGSSDQFCGSS

- Variants of: B1
- ASSAY_EXPLANATION: in vitro co-immunoprecipitation
- EXPERIMENTAL_CONTEXT: with GAD-PIF3, in vitro translated [modified: 35S-methionine labelled, phyB in Pr form, GAD-PIF3 as bait, phyB as prey, 35S-met in vitro translated proteins, parent: 1, read off a plot
READOUT_KIND: screen value (relative to wild-type phyB Pr = 1)

MUTATION_LABEL | RECORDED_RESULT
chain 1 S343Y | 1.4

(A) chain 1 V264E
(B) chain 1 C119Y
(C) chain 1 G348D
Exercise: Arrange items by their screen value (relative to wild-type phyB Pr = 1) values in increasing order. Answer format: the labels, ordered as requested.
Solution: B, C, A
(B: 0.45, C: 1, A: 2)

Cited source: paper PMC2621353
